# TGT: Human FRA on IGROV-1 human ovarian adenocarcinoma cells (human, UniProt P15328 25-234)
# Sequence (P15328 25-234 limits assumed): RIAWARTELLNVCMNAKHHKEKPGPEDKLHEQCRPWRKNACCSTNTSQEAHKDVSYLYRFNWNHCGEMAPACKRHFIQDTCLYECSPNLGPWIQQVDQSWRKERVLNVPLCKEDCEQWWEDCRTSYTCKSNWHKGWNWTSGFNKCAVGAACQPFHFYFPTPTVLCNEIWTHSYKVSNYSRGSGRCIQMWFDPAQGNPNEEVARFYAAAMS
# MEASUREMENT NOTES: cell-based or functional assay

BINDER	UNITS TEXT	Half-Maximal Internalization Constant
MORAb-003 anti-FRA antibody, lot NB859-28 (low DO; harvested 14 days after initiation of culture) (antibody, human IgG1, kappa, V domains shown, N-linked neutral glycans at Asn299 in SEQ ID NO: 5, also called low DO (round 3)) VH: EVQLVESGGGVVQPGRSLRLSCSASGFTFSGYGLSWVRQAPGKGLEWVAMISSGGSYTYYADSVKGRFAISRDNAKNTLFLQMDSLRPEDTGVYFCARHGDDPAWFAYWGQGTPVTVSS VL: DIQLTQSPSSLSASVGDRVTITCSVSSSISSNNLHWYQQKPGKAPKPWIYGTSNLASGVPSRFSGSGSGTDYTFTISSLQPEDIATYYCQQWSSYPYMYTFGQGTKVEIKR	min	36.5
MORAb-003 anti-FRA antibody, lot NB809-68 (high CO2; harvested 13 days after initiation of culture) (antibody, human IgG1, kappa, V domains shown, N-linked neutral glycans at Asn299 in SEQ ID NO: 5) VH: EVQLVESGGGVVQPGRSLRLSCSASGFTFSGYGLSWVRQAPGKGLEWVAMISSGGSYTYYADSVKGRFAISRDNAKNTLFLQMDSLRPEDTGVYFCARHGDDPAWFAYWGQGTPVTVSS VL: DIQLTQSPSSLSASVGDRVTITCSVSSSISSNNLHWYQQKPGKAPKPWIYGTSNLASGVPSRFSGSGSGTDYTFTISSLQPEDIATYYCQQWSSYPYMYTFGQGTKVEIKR	min	46.5
MORAb-003 anti-FRA antibody, lot NB809-66 (0.5 mM Na butyrate; harvested 13 days after initiation of culture) (antibody, human IgG1, kappa, V domains shown, N-linked neutral glycans at Asn299 in SEQ ID NO: 5) VH: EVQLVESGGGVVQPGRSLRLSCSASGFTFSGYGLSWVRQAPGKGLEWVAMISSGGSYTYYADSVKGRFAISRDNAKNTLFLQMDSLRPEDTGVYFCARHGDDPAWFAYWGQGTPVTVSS VL: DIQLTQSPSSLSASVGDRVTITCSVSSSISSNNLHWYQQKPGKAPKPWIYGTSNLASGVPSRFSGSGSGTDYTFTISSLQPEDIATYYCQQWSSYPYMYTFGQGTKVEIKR	min	53.5
MORAb-003 anti-FRA antibody, lot NB809-65 (positive control; harvested 13 days after initiation of culture) (antibody, human IgG1, kappa, V domains shown, N-linked neutral glycans at Asn299 in SEQ ID NO: 5, also called Pos. ctl; positive control (round 2)) VH: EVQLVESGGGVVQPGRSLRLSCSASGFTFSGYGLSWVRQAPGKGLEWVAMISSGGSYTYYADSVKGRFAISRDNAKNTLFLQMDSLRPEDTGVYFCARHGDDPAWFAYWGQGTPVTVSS VL: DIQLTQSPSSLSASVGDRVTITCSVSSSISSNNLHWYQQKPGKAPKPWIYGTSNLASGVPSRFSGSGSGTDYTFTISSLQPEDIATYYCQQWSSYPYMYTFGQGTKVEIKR	min	51.7
